Data provenance: patent US8519154B2

assay: Organ distribution of ICB/11/D-8; assay type: in vivo; conditions: Swiss, mouse, urine; 4 hr; N=4 mice; read-out: Organ distribution: Urine/ml
measured.property: concentration at 4 hr

smiles.string: COc1cc(C=O)cc2c1[nH]c1ccccc12
measured.property: concentration at 4 hr
test.value: 4070 ng/mL

====

assay: Organ distribution of ICB/11/D-8; type: in vivo; details: Swiss, mouse, spleen, 50 not found; 2 hr; N=4 mice; read-out: Organ distribution: Spleen
measured.property: concentration at 2 hr (ng/g)

smiles.string: COc1cc(C=O)cc2c1[nH]c1ccccc12
unit.symbol: ng/g
test.value: 140000

====

assay: Organ distribution of ICB/11/D-8; type: in vivo; settings: Swiss, mouse, brain; 0.5 hr; N=4 mice; read-out: Organ distribution: Brain
measured.property: concentration at 0.5 hr (ng/g)

smiles.string: COc1cc(C=O)cc2c1[nH]c1ccccc12
measured.property: concentration at 0.5 hr
unit.symbol: ng/g
test.value: 2300

====

assay: Organ distribution of ICB/11/D-8; format: in vivo; conditions: Swiss, mouse, kidneys; 4 hr; N=4 mice; read-out: Organ distribution: Kidneys

smiles.string: COc1cc(C=O)cc2c1[nH]c1ccccc12
concentration at 4 hr, ng/g: 105000

====

assay: Organ distribution of ICB/11/D-8; type: in vivo; settings: Swiss, mouse, intestine; 4 hr; N=4 mice

compound: COc1cc(C=O)cc2c1[nH]c1ccccc12 [Compound I, 1-methoxy-3-formyl-9H carbazole]
concentration at 4 h / ng/g: 124000

====

Test: 28 d sub-acute oral toxicity (OECD TG 407)
Assay type: in vivo, mice
Conditions: both sexes, Balb/c, mouse, in vivo; mice, 28 d oral
Method: The study was performed according to the guidelines laid in OECD TG 407. […] Experimental animals were sacrificed on day 29. […] Post sacrifice, the individual organs were dissected out, weighed and percentage relative organ weights determined. […] Serum concentrations of total IgG and IgM were measured by ELISA and Cell mediated immunity was measured in terms of % increase in paw volume in mice sensitized with SRBC. […]
measured.property: NOAEL at 28 days (mg/kg)

compound: COc1cc(C=O)cc2c1[nH]c1ccccc12 [Compound I, 1-methoxy-3-formyl-9H carbazole]
test.value: 93

====

assay: Organ distribution of ICB/11/D-8; assay type: in vivo; conditions: Swiss, mouse, stomach; 0.5 hr; N=4 mice; read-out: Organ distribution: Stomach
measured.property: concentration at 0.5 hr (ng/g)

smiles.string: COc1cc(C=O)cc2c1[nH]c1ccccc12
test.value: 378000

====

assay: Organ distribution of ICB/11/D-8; assay type: in vivo; settings: Swiss, mouse, liver; 4 hr; N=4 mice; read-out: Organ distribution: Liver
measured.property: concentration at 4 hr (ng/g)

molecule: COc1cc(C=O)cc2c1[nH]c1ccccc12 [Compound I, 1-methoxy-3-formyl-9H carbazole]
measured.property: concentration at 4 hr
test.value: 110000

====

experiment: Organ distribution of ICB/11/D-8; type: in vivo; conditions: Swiss, mouse, stomach; 2 hr; N=4 mice; read-out: Organ distribution: Stomach
measured.property: concentration at 2 hr (ng/g)

smiles.string: COc1cc(C=O)cc2c1[nH]c1ccccc12
test.value: 689000

====

assay: Organ distribution of ICB/11/D-8; assay type: in vivo; details: Swiss, mouse, heart; 12 hr; N=4 mice; read-out: Organ distribution: Heart

smiles.string: COc1cc(C=O)cc2c1[nH]c1ccccc12
concentration at 12 hr: 32200 ng/g

====

assay: Organ distribution of ICB/11/D-8; format: in vivo; conditions: Swiss, mouse, intestine; 0.5 hr; N=4 mice
measured.property: concentration at 0.5 h

smiles.string: COc1cc(C=O)cc2c1[nH]c1ccccc12
test.value: 105000 ng/g

====

assay: Organ distribution of ICB/11/D-8; assay type: in vivo; conditions: Swiss, mouse, urine; 0.5 hr; N=4 mice; read-out: Organ distribution: Urine/ml
measured.property: concentration at 0.5 hr (ng/mL)

smiles.string: COc1cc(C=O)cc2c1[nH]c1ccccc12
measured.property: concentration at 0.5 hr
unit.symbol: ng/mL
test.value: 2600

====

assay: Organ distribution of ICB/11/D-8; type: in vivo; conditions: Swiss, mouse, liver; 0.5 hr; N=4 mice; read-out: Organ distribution: Liver

molecule: COc1cc(C=O)cc2c1[nH]c1ccccc12 [Compound I, 1-methoxy-3-formyl-9H carbazole]
concentration at 0.5 hr: 89500 ng/g

====

assay: Organ distribution of ICB/11/D-8; type: in vivo; conditions: Swiss, mouse, lungs, 50 not found; 4 hr; N=4 mice; read-out: Organ distribution: Lungs

smiles.string: COc1cc(C=O)cc2c1[nH]c1ccccc12
unit.symbol: ng/g
concentration at 4 hr: 80700
